target: Nav1.7 (or SCN9A) channel (Homo sapiens, UniProt Q15858); construct: expressed in transfected cells; experiment: Nav1.7 PatchXpress 7000 automated electrophysiology assay (HEK cells stably expressing hSCN9A); assay type: cell-based; details: voltage-clamped at V1/2 of inactivation, read-out: Nav1.7 EIC50
Sequence (Q15858 whole entry): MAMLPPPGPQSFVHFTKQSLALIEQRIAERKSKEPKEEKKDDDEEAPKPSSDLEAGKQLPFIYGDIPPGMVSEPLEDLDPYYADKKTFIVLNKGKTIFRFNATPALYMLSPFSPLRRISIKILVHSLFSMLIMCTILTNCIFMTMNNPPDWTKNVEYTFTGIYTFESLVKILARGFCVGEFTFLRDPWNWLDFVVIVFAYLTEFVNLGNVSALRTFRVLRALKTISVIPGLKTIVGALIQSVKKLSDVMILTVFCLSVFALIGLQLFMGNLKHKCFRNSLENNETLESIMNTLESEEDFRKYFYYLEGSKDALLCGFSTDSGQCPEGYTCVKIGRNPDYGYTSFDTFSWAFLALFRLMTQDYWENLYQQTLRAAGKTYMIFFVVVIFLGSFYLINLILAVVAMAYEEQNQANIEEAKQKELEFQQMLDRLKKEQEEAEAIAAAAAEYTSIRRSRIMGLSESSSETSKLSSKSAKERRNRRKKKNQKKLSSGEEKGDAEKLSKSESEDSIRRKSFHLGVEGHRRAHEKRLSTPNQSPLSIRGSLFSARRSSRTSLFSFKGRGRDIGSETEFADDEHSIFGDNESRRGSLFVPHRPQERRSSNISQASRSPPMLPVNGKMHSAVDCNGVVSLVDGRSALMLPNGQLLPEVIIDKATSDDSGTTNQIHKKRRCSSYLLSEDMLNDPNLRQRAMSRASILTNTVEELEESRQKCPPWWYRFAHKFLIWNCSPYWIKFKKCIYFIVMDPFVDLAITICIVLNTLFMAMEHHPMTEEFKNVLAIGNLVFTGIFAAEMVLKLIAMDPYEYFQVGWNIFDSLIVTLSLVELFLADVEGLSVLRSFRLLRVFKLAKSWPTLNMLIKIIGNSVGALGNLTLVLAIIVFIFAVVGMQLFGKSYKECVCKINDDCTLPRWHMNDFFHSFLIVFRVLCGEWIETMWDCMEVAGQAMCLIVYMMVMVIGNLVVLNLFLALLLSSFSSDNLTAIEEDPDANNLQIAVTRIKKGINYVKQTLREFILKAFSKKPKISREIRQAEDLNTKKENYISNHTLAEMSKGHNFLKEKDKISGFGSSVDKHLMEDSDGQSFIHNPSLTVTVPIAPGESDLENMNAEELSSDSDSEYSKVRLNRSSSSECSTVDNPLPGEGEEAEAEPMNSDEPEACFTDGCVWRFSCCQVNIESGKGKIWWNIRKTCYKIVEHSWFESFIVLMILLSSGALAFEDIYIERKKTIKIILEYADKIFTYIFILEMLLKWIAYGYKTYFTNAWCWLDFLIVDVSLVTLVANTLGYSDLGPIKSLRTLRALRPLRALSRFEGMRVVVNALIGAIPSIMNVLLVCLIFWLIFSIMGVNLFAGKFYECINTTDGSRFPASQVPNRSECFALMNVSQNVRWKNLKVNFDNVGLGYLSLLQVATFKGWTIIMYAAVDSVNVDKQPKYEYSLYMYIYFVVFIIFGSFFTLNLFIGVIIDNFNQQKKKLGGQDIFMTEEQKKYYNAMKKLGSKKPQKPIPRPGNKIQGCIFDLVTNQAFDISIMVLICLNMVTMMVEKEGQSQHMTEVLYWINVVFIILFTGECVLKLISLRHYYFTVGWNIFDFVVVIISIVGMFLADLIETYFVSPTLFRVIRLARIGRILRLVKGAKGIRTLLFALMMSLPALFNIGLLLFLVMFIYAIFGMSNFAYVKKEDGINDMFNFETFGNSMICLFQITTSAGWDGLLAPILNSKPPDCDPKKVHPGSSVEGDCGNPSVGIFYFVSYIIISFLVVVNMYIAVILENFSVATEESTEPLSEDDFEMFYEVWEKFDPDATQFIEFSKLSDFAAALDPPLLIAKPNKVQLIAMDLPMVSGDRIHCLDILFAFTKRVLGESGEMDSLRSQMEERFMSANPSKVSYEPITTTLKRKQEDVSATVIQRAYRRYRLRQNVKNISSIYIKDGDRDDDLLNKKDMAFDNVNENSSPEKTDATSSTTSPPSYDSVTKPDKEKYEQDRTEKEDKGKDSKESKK
Class (required): determined from IC50; valid ranges are class A (below 1 µM), class B (1 µM to below 5 µM), class C (5 µM or more)

| QUERY_SMILES | TESTED_ON | ASSIGNED_LABEL |
| --- | --- | --- |
| Cc1cccc(Oc2ccc(C(=O)NS(C)(=O)=O)cc2)c1 | Nav1.7 (or SCN9A) channel (Homo sapiens, UniProt Q15858) | class C |
| CS(=O)(=O)NC(=O)c1cc(F)c(Oc2cc(F)cc(F)c2F)cc1F | Nav1.7 (or SCN9A) channel (Homo sapiens, UniProt Q15858) | class C |
| CS(=O)(=O)NC(=O)c1ccc(Oc2ccc(Cl)cc2)c(Cl)c1 | Nav1.7 (or SCN9A) channel (Homo sapiens, UniProt Q15858) | class A |
| CS(=O)(=O)NC(=O)c1ccc(Oc2ccc(OC(F)(F)F)cc2)cc1 | Nav1.7 (or SCN9A) channel (Homo sapiens, UniProt Q15858) | class B |
| COc1c(C(=O)NS(C)(=O)=O)ccc(Oc2ccc(Cl)c(C)c2)c1F | Nav1.7 (or SCN9A) channel (Homo sapiens, UniProt Q15858) | class A |
| CS(=O)(=O)NC(=O)c1ccc(Oc2ccccc2Cl)c(Cl)c1 | Nav1.7 (or SCN9A) channel (Homo sapiens, UniProt Q15858) | class B |
| O=C(NS(=O)(=O)C1CC1)c1ccc(Oc2ccc(Cl)cc2)cc1 | Nav1.7 (or SCN9A) channel (Homo sapiens, UniProt Q15858) | class A |
| CS(=O)(=O)NC(=O)c1cc(F)c(Oc2ccc(Cl)c(F)c2)cc1F | Nav1.7 (or SCN9A) channel (Homo sapiens, UniProt Q15858) | class B |
| COc1ccc(C)cc1Oc1ccc(C(=O)NS(C)(=O)=O)cc1 | Nav1.7 (or SCN9A) channel (Homo sapiens, UniProt Q15858) | class C |
| CS(=O)(=O)NC(=O)c1cc(F)c(Oc2cccc(OC(F)(F)F)c2)cc1F | Nav1.7 (or SCN9A) channel (Homo sapiens, UniProt Q15858) | class A |
| CS(=O)(=O)NC(=O)c1cc(F)c(Oc2ccc(Cl)c(C(F)(F)F)c2)c(F)c1 | Nav1.7 (or SCN9A) channel (Homo sapiens, UniProt Q15858) | class B |
| CCOc1ccc(Oc2ccc(C(=O)NS(C)(=O)=O)cc2C#N)cc1 | Nav1.7 (or SCN9A) channel (Homo sapiens, UniProt Q15858) | class B |
| CCc1cc(F)ccc1Oc1ccc(C(=O)NS(C)(=O)=O)cc1 | Nav1.7 (or SCN9A) channel (Homo sapiens, UniProt Q15858) | class C |

---

molecular target: Nav1.7 (or SCN9A) channel (Homo sapiens); construct: expressed in transfected cells; experiment: Nav1.7 PatchXpress 7000 automated electrophysiology assay (HEK cells stably expressing hSCN9A); format: cell-based; details: voltage-clamped at V1/2 of inactivation, read-out: Nav1.7 EIC50
READOUT: IC50 (nM)

| QUERY_SMILES | TESTED_ON | READOUT | VALUE_MODIFIER | RESULT |
| --- | --- | --- | --- | --- |
| Cn1nccc1-c1cc(Cl)ccc1Oc1ccc(C(=O)NS(C)(=O)=O)cc1C#N | Nav1.7 (or SCN9A) channel (Homo sapiens) | IC50 | > | 3000 |
| CS(=O)(=O)NC(=O)c1cc(F)c(Oc2cc(Cl)cc(Cl)c2)cc1F | Nav1.7 (or SCN9A) channel (Homo sapiens) | IC50 | = | 1500 |
| COc1cc(Cl)ccc1Oc1ccc(C(=O)NS(C)(=O)=O)c(OC)c1 | Nav1.7 (or SCN9A) channel (Homo sapiens) | IC50 | = | 25000 |
| Cc1cccc(Oc2cc(F)c(C(=O)NS(C)(=O)=O)cc2F)c1 | Nav1.7 (or SCN9A) channel (Homo sapiens) | IC50 | = | 6800 |
| Cc1cccc(Oc2ccc(C(=O)NS(C)(=O)=O)cc2Cl)c1 | Nav1.7 (or SCN9A) channel (Homo sapiens) | IC50 | = | 1400 |
| Cc1cc(C(=O)NS(C)(=O)=O)ccc1Oc1ccc(Cl)c(Cl)c1 | Nav1.7 (or SCN9A) channel (Homo sapiens) | IC50 | = | 230 |
| CS(=O)(=O)NC(=O)c1cc(Cl)c(Oc2cccc3ccccc23)cc1F | Nav1.7 (or SCN9A) channel (Homo sapiens) | IC50 | = | 2100 |
| Cc1cccc(Oc2ccc(C(=O)NS(C)(=O)=O)cc2)c1C | Nav1.7 (or SCN9A) channel (Homo sapiens) | IC50 | = | 24000 |
| CS(=O)(=O)NC(=O)c1ccc(Oc2ccc3ccccc3c2)c(C#N)c1 | Nav1.7 (or SCN9A) channel (Homo sapiens) | IC50 | = | 1700 |
| CCc1cc(F)ccc1Oc1ccc(C(=O)NS(C)(=O)=O)cc1C#N | Nav1.7 (or SCN9A) channel (Homo sapiens) | IC50 | = | 5200 |
| CS(=O)(=O)NC(=O)c1ccc(Oc2ccc(Cl)c(Cl)c2)c(F)c1 | Nav1.7 (or SCN9A) channel (Homo sapiens) | IC50 | = | 1500 |
| Cc1ccc(Oc2ccc(C(=O)NS(C)(=O)=O)cc2F)cc1 | Nav1.7 (or SCN9A) channel (Homo sapiens) | IC50 | = | 4200 |
| COc1cc(C)ccc1Oc1ccc(C(=O)NS(C)(=O)=O)cc1 | Nav1.7 (or SCN9A) channel (Homo sapiens) | IC50 | > | 10000 |
| CS(=O)(=O)NC(=O)c1cc(Cl)c(Oc2ccc(Cl)c(C(F)(F)F)c2)cc1F | Nav1.7 (or SCN9A) channel (Homo sapiens) | IC50 | = | 40 |
| Cn1nccc1-c1cc(Cl)ccc1Oc1ccc(C(=O)NS(C)(=O)=O)cc1 | Nav1.7 (or SCN9A) channel (Homo sapiens) | IC50 | > | 3000 |
| CS(=O)(=O)NC(=O)c1ccc(Oc2ccc(-c3ccccc3)cc2)c(C#N)c1 | Nav1.7 (or SCN9A) channel (Homo sapiens) | IC50 | = | 430 |
| Cc1cc(F)ccc1Oc1cc(F)c(C(=O)NS(C)(=O)=O)cc1F | Nav1.7 (or SCN9A) channel (Homo sapiens) | IC50 | > | 3000 |
| CS(=O)(=O)NC(=O)c1cc(Cl)c(Oc2ccc(C(F)(F)F)cc2-c2ccnnc2)cc1F | Nav1.7 (or SCN9A) channel (Homo sapiens) | IC50 | = | 9900 |

---

Documented pIC50 across a set of molecules
molecular target: Nav1.7 (or SCN9A) channel (Homo sapiens); construct: expressed in transfected cells; experiment: Nav1.7 PatchXpress 7000 automated electrophysiology assay (HEK cells stably expressing hSCN9A); format: cell-based; conditions: voltage-clamped at V1/2 of inactivation, read-out: Nav1.7 EIC50
pIC50: −log10 of the molar value.

| MOLECULE | VALUE_MODIFIER | pIC50 |
| --- | --- | --- |
| CS(=O)(=O)NC(=O)c1ccc(Oc2ccc(Cl)c(C(F)(F)F)c2)c(Cl)c1 [Example 44] | = | 5.70 |
| COc1c(C(=O)NS(C)(=O)=O)ccc(Oc2ccc(Cl)c(Cl)c2)c1F [Example 234] | = | 6.07 |
| CS(=O)(=O)NC(=O)c1ccc(Oc2ccc(OCc3ccccc3)cc2)cc1 [Example 178] | = | 5.89 |
| CS(=O)(=O)NC(=O)c1ccc(Oc2ccc(Cl)c(Cl)c2)c(Cl)c1 [Example 82] | = | 6.85 |
| CS(=O)(=O)NC(=O)c1cc(F)c(Oc2ccc(C#N)c(Cl)c2)cc1F [Example 95] | < | 5.52 |
| Cc1cc(Oc2ccc(C(=O)NS(C)(=O)=O)cc2F)ccc1F [Example 218] | = | 5.55 |
| Cc1ccc(Cl)c(Oc2cc(F)c(C(=O)NS(C)(=O)=O)cc2F)c1 [Example 110] | < | 6.00 |
| CS(=O)(=O)NC(=O)c1ccc(Oc2ccc(-c3ccccc3)cc2)cc1 [Example 245] | = | 5.89 |
| CS(=O)(=O)NC(=O)c1cc(Cl)c(Oc2ccccc2C#N)cc1F [Example 293] | < | 5.52 |

---

Documented pIC50 across a set of molecules
Target: Nav1.7 (or SCN9A) channel (Homo sapiens, UniProt Q15858)
Construct: expressed in transfected cells
Assay: Nav1.7 PatchXpress 7000 automated electrophysiology assay (HEK cells stably expressing hSCN9A)
Assay type: cell-based
Conditions: voltage-clamped at V1/2 of inactivation, read-out: Nav1.7 EIC50
Procedure: The ability of the compounds of formula (I) to block the Nav1.7 (or SCN9A) channel was measured using the assays described below. […] HEK cells stably transfected with hSCN9A were viewed under Hoffman contrast optics and placed in front of an array of flow pipes emitting either control or compound-containing extracellular solutions. […] The voltage-dependence of inactivation was determined by applying a series of depolarizing prepulses (8 sec long in 10 mV increments) from a negative holding potential. […]
pIC50: −log10 of the molar value.
READOUT: pIC50

| QUERY_SMILES | TESTED_ON | VALUE_MODIFIER | RESULT |
| --- | --- | --- | --- |
| COc1cc(C)cc(Oc2ccc(C(=O)NS(C)(=O)=O)cc2)c1 | Nav1.7 (or SCN9A) channel (Homo sapiens, UniProt Q15858) | = | 4.68 |
| CS(=O)(=O)NC(=O)c1cc(F)c(Oc2ccc(OC(F)(F)F)c(Cl)c2)cc1F | Nav1.7 (or SCN9A) channel (Homo sapiens, UniProt Q15858) | = | 6.47 |
| Cc1cc(Cl)ccc1Oc1cc(F)c(C(=O)NS(C)(=O)=O)cc1F | Nav1.7 (or SCN9A) channel (Homo sapiens, UniProt Q15858) | = | 5.43 |
| CS(=O)(=O)NC(=O)c1cc(F)c(Oc2ccc(Cl)c(C(F)(F)F)c2)cc1Cl | Nav1.7 (or SCN9A) channel (Homo sapiens, UniProt Q15858) | = | 6.28 |
| Cn1nc(C(F)(F)F)cc1-c1ccc(Oc2ccc(C(=O)NS(C)(=O)=O)cc2)cc1 | Nav1.7 (or SCN9A) channel (Homo sapiens, UniProt Q15858) | = | 5.48 |
| CC(C)c1cccc(Oc2cc(F)c(C(=O)NS(C)(=O)=O)cc2F)c1 | Nav1.7 (or SCN9A) channel (Homo sapiens, UniProt Q15858) | = | 6.08 |
| CC(C)c1cccc(Oc2ccc(C(=O)NS(C)(=O)=O)cc2)c1 | Nav1.7 (or SCN9A) channel (Homo sapiens, UniProt Q15858) | = | 5.80 |
| CS(=O)(=O)NC(=O)c1ccc(Oc2ccc(Cl)cc2Cl)cc1 | Nav1.7 (or SCN9A) channel (Homo sapiens, UniProt Q15858) | < | 5.00 |
| Cc1ccc(Cl)cc1Oc1ccc(C(=O)NS(C)(=O)=O)cc1 | Nav1.7 (or SCN9A) channel (Homo sapiens, UniProt Q15858) | = | 4.80 |
| CCOc1cccc(Oc2ccc(C(=O)NS(C)(=O)=O)cc2C#N)c1 | Nav1.7 (or SCN9A) channel (Homo sapiens, UniProt Q15858) | = | 5.37 |
| Cc1cc(C(=O)NS(C)(=O)=O)ccc1Oc1ccc(F)cc1 | Nav1.7 (or SCN9A) channel (Homo sapiens, UniProt Q15858) | = | 5.60 |
| CS(=O)(=O)NC(=O)c1cc(F)c(Oc2ccc(OC(F)(F)F)cc2)cc1F | Nav1.7 (or SCN9A) channel (Homo sapiens, UniProt Q15858) | = | 5.96 |
| COc1cc(Oc2ccc(Cl)c(C)c2)ccc1C(=O)NS(C)(=O)=O | Nav1.7 (or SCN9A) channel (Homo sapiens, UniProt Q15858) | = | 5.41 |
| Cc1ccc(Oc2ccc(C(=O)NS(C)(=O)=O)cc2)cc1 | Nav1.7 (or SCN9A) channel (Homo sapiens, UniProt Q15858) | = | 5.06 |
| CS(=O)(=O)NC(=O)c1cc(F)c(Oc2cccc(Cl)c2)cc1F | Nav1.7 (or SCN9A) channel (Homo sapiens, UniProt Q15858) | < | 5.52 |
| COc1cccc(Oc2ccc(C(=O)NS(C)(=O)=O)cc2C#N)c1 | Nav1.7 (or SCN9A) channel (Homo sapiens, UniProt Q15858) | = | 5.25 |
| CS(=O)(=O)NC(=O)c1ccc(Oc2ccc(C#N)cc2)c(Cl)c1 | Nav1.7 (or SCN9A) channel (Homo sapiens, UniProt Q15858) | = | 5.43 |
| COc1cc(Cl)ccc1Oc1ccc(C(=O)NS(C)(=O)=O)cc1F | Nav1.7 (or SCN9A) channel (Homo sapiens, UniProt Q15858) | < | 6.00 |
| COc1cc(Cl)ccc1Oc1ccc(C(=O)NS(C)(=O)=O)cc1 | Nav1.7 (or SCN9A) channel (Homo sapiens, UniProt Q15858) | < | 5.00 |
